# Tested on: Human gammaherpesvirus 8
# Test: Inhibition of Kaposi's sarcoma herpesvirus C-terminal His-tagged oligomerization deficient LANA DBD (1008 to 1146 residues) K1055E/K1138S/K1140D/K1141D/R1039Q/R1040Q/A1121E/K1109A/D1110A mutant expressed in Escherichia coli BL21(DE3) assessed as inhibition of LANA interaction with 5'-Dy682-labeled viral DNA LBS1 probe at 500 uM preincubated with LANA-DBD for 60 mins followed by addition of DNA probe and measured after 30 mins by Electrophoretic mobility shift assay
# Condition summary: time 90.0 min
Readout kind: inhibition

{"Record smiles": "Cc1cc(-c2ccccc2)ncc1-n1cc(-c2ccc(C(=O)O)cc2)nn1", "Assayed system": "Human gammaherpesvirus 8", "Recorded measurement": "36%"}
{"Record smiles": "Cc1ccncc1-n1cc(-c2ccc(C(=O)O)cc2)nn1", "Assayed system": "Human gammaherpesvirus 8", "Recorded measurement": "39%"}
{"Record smiles": "O=C(O)c1ccc(-c2cn(-c3cncc(-c4ccccc4)c3Cl)nn2)cc1", "Assayed system": "Human gammaherpesvirus 8", "Recorded measurement": "100%"}

Now look at this one.
Q: Item under review: O=C(O)c1ccc(-c2cn(-c3cncc(-c4ccoc4)c3)nn2)cc1 . Reported inhibition?
A: 34%

====

# System: Human gammaherpesvirus 8
# Test: Inhibition of Kaposi's sarcoma herpesvirus C-terminal His-tagged oligomerization deficient LANA DBD (1008 to 1146 residues) K1055E/K1138S/K1140D/K1141D/R1039Q/R1040Q/A1121E/K1109A/D1110A mutant expressed in Escherichia coli BL21(DE3) assessed as inhibition of LANA interaction with 5'-Dy682-labeled viral DNA LBS1 probe at 500 uM preincubated with LANA-DBD for 60 mins followed by addition of DNA probe and measured after 30 mins by Electrophoretic mobility shift assay
# Condition summary: time 90.0 min
Activity calls are given as the source filed them. The calls are words filed in the database; no cut-off is given here.
Readout kind: inhibition

Observe how each entry below is paired with its result.
{"Record smiles": "Cc1cc(-c2ccccc2O)ncc1-n1cc(-c2ccc(C(=O)O)cc2)nn1", "inhibition": "100%"}
{"Record smiles": "O=C(O)c1ccc(-c2cn(-c3cncc4ccccc34)nn2)cc1", "inhibition": "96%"}
{"Record smiles": "O=C(O)c1ccc(-c2cn(-c3cnccc3-c3ccccc3)nn2)cc1", "inhibition": "100%"}
{"Record smiles": "O=C(O)c1ccc(-c2cn(-c3cnc4ccccc4c3)nn2)cc1", "inhibition": "61%"}
{"Record smiles": "Cc1cc(Oc2ccccc2)ncc1-n1cc(-c2ccc(C(=O)O)cc2)nn1", "inhibition": "inactive"}
{"Record smiles": "O=C(O)c1ccc(-c2cn(-c3cncc(-c4cccc(O)c4)c3)nn2)cc1", "inhibition": "20%"}
{"Record smiles": "Cc1cncc(-n2cc(-c3ccc(C(=O)O)cc3)nn2)c1", "inhibition": "78%"}
{"Record smiles": "Cc1cc(-c2ccc(Cl)cc2)ncc1-n1cc(-c2ccc(C(=O)O)cc2)nn1", "inhibition": "30%"}

Q: Item under review: Cc1cc(Oc2ccc(F)cc2)ncc1-n1cc(-c2ccc(C(=O)O)cc2)nn1 . Reported inhibition?
A: inactive

Q: Item under review: COc1ccc(-n2cc(-c3ccc(C(=O)O)cc3)nn2)cn1 . Reported inhibition?
A: 11%

Q: Item under review: O=C(O)c1ccc(-c2cn(-c3cncc4ccc(Cl)cc34)nn2)cc1 . Reported inhibition?
A: 100%
